Tested on: Canis familiaris
Test method notes: Compound was tested for inotropic activity by measuring the concentration required to increase heart rate by 15% in the anesthetized dog after intravenous administration
Format: functional, Canis lupus familiaris
Experimental readout: Equieffective dose (mg/kg)
Use mg/kg as the unit, but write only the number.

[[record]]
compound = "CCc1[nH]c(O)nc1C(=O)c1cnccc1Cl"
value_reported = 11.8

[[record]]
compound = "Cc1[nH]c(O)nc1C(=O)c1ccncc1"
value_reported = 3.37

[[record]]
compound = "CCc1[nH]c(O)nc1C(=O)c1ccccn1"
value_reported = 0.83


The reported value for CCc1[nH]c(=O)[nH]c1C(=O)c1ccncc1 in terms of Equieffective dose is 0.42

Lookup result for Cc1[nH]c(O)nc1C(=O)c1cccnc1Cl ; measured Equieffective dose: 5.1

Noted for CCCc1[nH]c(O)nc1C(=O)c1ccncc1 : its Equieffective dose reads 3.38

response.value for Cc1[nH]c(O)nc1C(=O)c1ccccn1 (field: Equieffective dose) = 3.29

Just for reference, ChEMBL document CHEMBL1123189 is where these values come from.
